Source listed as ChEMBL document CHEMBL1275329.

Target: Alpha-2A adrenergic receptor (Homo sapiens)
Sequence (P08913 whole entry): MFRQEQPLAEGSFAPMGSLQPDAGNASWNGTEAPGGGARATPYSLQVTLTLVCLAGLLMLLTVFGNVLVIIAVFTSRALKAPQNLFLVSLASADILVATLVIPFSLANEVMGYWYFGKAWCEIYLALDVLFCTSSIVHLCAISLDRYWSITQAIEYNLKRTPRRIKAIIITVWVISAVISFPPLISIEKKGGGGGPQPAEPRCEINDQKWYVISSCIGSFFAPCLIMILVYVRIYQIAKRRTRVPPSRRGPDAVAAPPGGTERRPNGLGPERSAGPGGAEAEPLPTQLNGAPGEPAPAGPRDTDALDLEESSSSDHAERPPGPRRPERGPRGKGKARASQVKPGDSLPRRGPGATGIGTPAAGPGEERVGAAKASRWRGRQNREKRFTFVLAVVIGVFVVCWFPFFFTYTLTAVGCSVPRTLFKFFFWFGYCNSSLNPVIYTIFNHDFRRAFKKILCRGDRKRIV
Experiment: Agonist activity at human alpha2A adrenoceptor expressed in CHO cells assessed as induction of extracellular acidification by microphysiometry
Measurement Label: EC50 (nM)
Answer with a number only, understood to be in nM.

I'm curious: which EC50 was measured for C[C@@H](Oc1ccccc1-c1ccsc1)C1=NCCN1 tested on Alpha-2A adrenergic receptor (Homo sapiens)?
3160

Next: C[C@H](Oc1ccccc1-c1ccsc1)C1=NCCN1
63.1

---

Target: Alpha-2B adrenergic receptor (Homo sapiens)
Sequence (whole entry): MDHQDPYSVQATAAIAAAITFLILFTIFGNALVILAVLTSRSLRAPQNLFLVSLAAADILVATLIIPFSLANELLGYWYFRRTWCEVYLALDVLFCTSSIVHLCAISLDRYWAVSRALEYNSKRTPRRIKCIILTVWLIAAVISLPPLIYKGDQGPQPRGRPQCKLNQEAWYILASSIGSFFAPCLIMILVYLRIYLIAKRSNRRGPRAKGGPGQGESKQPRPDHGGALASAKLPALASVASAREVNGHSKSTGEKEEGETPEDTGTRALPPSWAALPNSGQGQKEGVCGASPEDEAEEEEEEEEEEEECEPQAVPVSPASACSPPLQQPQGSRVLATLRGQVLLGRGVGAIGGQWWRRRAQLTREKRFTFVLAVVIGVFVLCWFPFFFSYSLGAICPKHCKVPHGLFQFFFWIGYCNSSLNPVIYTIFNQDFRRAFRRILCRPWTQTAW
Experiment: Antagonist activity at human alpha2B adrenoceptor expressed in CHO cells assessed as effect on agonist-induced extracellular acidification by microphysiometry
Assay type: functional, cell-based
Answer each item with its documented pKb.
Answer with the value's number alone.

I'm curious: which pKb was measured for C[C@@H](Oc1ccccc1-c1cccc(O)c1)C1=NCCN1 tested on Alpha-2B adrenergic receptor (Homo sapiens)?
5.67

Next: C[C@@H](Oc1ccccc1-c1cccc([N+](=O)[O-])c1)C1=NCCN1
6.07

Next: C[C@H](Oc1ccccc1-c1cccc([N+](=O)[O-])c1)C1=NCCN1
5.93

Next: CC(Oc1ccccc1)C1=NCCN1 (racemic)
6.2

Next: CC(Oc1ccccc1-c1cccc([N+](=O)[O-])c1)C1=NCCN1 (racemic)
5.9

Next: C[C@H](Oc1ccccc1-c1cccc(O)c1)C1=NCCN1
5.5

---

Biological target: Alpha-2C adrenergic receptor (Homo sapiens, UniProt P18825)
Sequence (P18825 whole entry): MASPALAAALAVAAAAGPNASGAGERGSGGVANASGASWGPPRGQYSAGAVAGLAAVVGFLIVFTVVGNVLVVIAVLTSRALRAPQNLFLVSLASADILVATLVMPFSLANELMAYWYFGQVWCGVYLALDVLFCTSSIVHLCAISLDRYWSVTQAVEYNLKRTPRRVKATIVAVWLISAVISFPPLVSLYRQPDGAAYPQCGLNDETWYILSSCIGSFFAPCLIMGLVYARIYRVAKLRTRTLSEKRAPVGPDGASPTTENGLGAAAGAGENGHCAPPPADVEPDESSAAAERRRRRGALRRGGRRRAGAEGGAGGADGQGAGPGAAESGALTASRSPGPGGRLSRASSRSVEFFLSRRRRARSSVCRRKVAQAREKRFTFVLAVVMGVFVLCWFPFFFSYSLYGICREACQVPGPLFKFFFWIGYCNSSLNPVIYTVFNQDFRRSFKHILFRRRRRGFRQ
Measurement Label: Ki (nM)
Answer with a number only, understood to be in nM.

GET /values?readout=Ki&item= C[C@@H](Oc1ccccc1C1CC1)C1=NCCN1
126

Next: C[C@@H](Oc1ccccc1-c1ccsc1)C1=NCCN1
316

Next: C[C@@H](Oc1ccccc1-c1cccc(O)c1)C1=NCCN1
31.6

Next: C=CCc1ccccc1O[C@H](C)C1=NCCN1
178

Next: C[C@H](Oc1ccccc1C1CC1)C1=NCCN1
63.1

Next: C[C@H](Oc1ccccc1-c1ccsc1)C1=NCCN1
126

Next: C[C@H](Oc1ccccc1-c1cccc(O)c1)C1=NCCN1
112

Next: C=CCc1ccccc1O[C@@H](C)C1=NCCN1
70.8

Next: CC(Oc1ccccc1C1CC1)C1=NCCN1 (racemic)
79.4

---

biological target: Alpha-2C adrenergic receptor (Homo sapiens) (UniProt P18825); experiment: Agonist activity at human Alpha-2C adrenoceptor expressed in CHO cells assessed as induction of extracellular acidification by microphysiometry relative to (-)noradrenaline; type: functional, cell-based
Measurement Label: Intrinsic activity
Answer with the value's number alone.

GET /values?readout=Intrinsic activity&item= C[C@@H](Oc1ccccc1-c1ccsc1)C1=NCCN1
0.7

Next: CC(Oc1ccccc1-c1cccc([N+](=O)[O-])c1)C1=NCCN1 (racemic)
0.6

Next: CC(Oc1ccccc1-c1ccsc1)C1=NCCN1 (racemic)
0.85

Next: C[C@H](Oc1ccccc1-c1cccc(O)c1)C1=NCCN1
0.65

Next: CC(Oc1ccccc1-c1ccccc1)C1=NCCN1 (racemic)
0.8

Next: C[C@@H](Oc1ccccc1-c1cccc([N+](=O)[O-])c1)C1=NCCN1
0.8

Next: C[C@H](Oc1ccccc1C1CC1)C1=NCCN1
0.9

---

Answer each item with its documented EC50.
Target: Alpha-2B adrenergic receptor (Homo sapiens, UniProt P18089)
Sequence (P18089 whole entry): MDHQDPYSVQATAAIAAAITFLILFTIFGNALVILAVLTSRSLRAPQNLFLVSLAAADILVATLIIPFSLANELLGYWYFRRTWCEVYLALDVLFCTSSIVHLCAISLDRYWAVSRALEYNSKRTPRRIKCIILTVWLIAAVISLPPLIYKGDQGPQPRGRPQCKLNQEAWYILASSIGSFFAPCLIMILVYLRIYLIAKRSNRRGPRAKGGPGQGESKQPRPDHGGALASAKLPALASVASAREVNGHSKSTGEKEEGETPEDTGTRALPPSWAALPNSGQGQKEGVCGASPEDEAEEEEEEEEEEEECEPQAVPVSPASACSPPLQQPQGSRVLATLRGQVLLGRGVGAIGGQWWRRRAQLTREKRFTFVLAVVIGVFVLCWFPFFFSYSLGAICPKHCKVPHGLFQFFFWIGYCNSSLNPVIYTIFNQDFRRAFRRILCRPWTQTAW
Test: Agonist activity at human alpha2B adrenoceptor expressed in CHO cells assessed as induction of extracellular acidification by microphysiometry
Answer with a number only, understood to be in nM.

GET /values?readout=EC50&item= C[C@H](Oc1ccccc1-c1ccsc1)C1=NCCN1
1000

Next: C[C@H](Oc1ccccc1C1CC1)C1=NCCN1
3160

Next: C=CCc1ccccc1O[C@@H](C)C1=NCCN1
1000

Next: CC(Oc1ccccc1C1CC1)C1=NCCN1 (racemic)
3160

---

Answer each item with its documented pKb.
Molecular target: Alpha-2A adrenergic receptor (Homo sapiens) (UniProt P08913)
Sequence (whole entry): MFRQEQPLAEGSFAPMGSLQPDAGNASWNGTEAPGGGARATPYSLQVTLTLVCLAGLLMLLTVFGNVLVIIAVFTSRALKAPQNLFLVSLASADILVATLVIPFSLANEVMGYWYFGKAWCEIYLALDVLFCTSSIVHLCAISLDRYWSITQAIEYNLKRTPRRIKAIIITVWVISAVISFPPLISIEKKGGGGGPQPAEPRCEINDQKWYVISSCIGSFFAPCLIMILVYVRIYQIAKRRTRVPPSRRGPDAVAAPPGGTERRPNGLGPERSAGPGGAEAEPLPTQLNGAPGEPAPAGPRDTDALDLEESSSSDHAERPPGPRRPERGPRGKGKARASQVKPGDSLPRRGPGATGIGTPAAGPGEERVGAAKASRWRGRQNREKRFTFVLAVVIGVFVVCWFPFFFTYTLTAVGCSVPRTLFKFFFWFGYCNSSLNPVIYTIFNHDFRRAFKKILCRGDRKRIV
Assay: Antagonist activity at human alpha2A adrenoceptor expressed in CHO cells assessed as effect on agonist-induced extracellular acidification by microphysiometry
Format: functional, cell-based
Answer with the value's number alone.

GET /values?readout=pKb&item= C[C@@H](Oc1ccccc1-c1cccc([N+](=O)[O-])c1)C1=NCCN1
7.11

Next: C=CCc1ccccc1O[C@H](C)C1=NCCN1
7.4

Next: CC(Oc1ccccc1-c1cccc(O)c1)C1=NCCN1 (racemic)
6.2

Next: C[C@@H](Oc1ccccc1C1CC1)C1=NCCN1
6.9

Next: C=CCc1ccccc1OC(C)C1=NCCN1 (racemic) [ALLYPHENYLINE]
7.4

Next: C[C@@H](Oc1ccccc1-c1cccc(O)c1)C1=NCCN1
6.4

Next: CC(Oc1ccccc1C1CC1)C1=NCCN1 (racemic)
7

Next: CC(Oc1ccccc1)C1=NCCN1 (racemic)
7.01

Next: CC(Oc1ccccc1-c1cccc([N+](=O)[O-])c1)C1=NCCN1 (racemic)
6.8

Next: C[C@H](Oc1ccccc1C1CC1)C1=NCCN1
7.7

Next: C[C@H](Oc1ccccc1-c1cccc(O)c1)C1=NCCN1
6

Next: C[C@H](Oc1ccccc1-c1cccc([N+](=O)[O-])c1)C1=NCCN1
7.35

Next: C=CCc1ccccc1O[C@@H](C)C1=NCCN1
7.8
